# system: T1, TNF-R1-DD ligand protein encoded by clone 27TU (Homo sapiens (Human), UniProt Q8WXG6 1002-1647)
# T1 construct: partial clone
# T1 sequence (Q8WXG6 other isoform, or with tags, fused parts or gaps): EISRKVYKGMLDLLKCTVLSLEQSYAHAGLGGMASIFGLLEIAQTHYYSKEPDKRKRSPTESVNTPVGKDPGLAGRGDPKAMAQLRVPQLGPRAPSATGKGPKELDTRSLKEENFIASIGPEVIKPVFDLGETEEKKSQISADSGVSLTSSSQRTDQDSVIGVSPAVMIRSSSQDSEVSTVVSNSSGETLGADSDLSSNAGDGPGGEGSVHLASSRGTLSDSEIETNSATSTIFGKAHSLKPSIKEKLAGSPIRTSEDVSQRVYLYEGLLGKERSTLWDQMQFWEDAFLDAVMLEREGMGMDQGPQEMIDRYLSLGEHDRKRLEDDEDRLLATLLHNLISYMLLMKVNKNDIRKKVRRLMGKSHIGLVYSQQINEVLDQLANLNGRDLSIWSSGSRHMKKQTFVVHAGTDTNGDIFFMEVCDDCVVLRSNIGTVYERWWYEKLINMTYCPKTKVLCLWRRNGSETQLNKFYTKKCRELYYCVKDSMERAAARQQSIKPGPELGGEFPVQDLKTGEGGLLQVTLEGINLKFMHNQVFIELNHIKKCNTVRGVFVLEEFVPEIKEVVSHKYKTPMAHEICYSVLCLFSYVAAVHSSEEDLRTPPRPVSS
# test.details: yeast interaction trap, panel of baits
measured.quantity: binding result

Recorded binding result, per entry:
binder | experimental.value
death domain of the fas antigen (FasDD) (receptor, UniProt P25445 230-314, looked up, domain: death domain) SKYITTIAGVMTLSQVKGFVRKNGVNEAKIDEIKNDNVQDTAEQKVQLLRNWHQLHGKKEAYDTLIKDLKKANLCTLAEKIQTII | no binding
Drosophila transcription factor bicoid (other, UniProt P09081-2 2-160, looked up) AQPPPDQNFYHHPLPHTHTHPHPHSHPHPHSHPHPHHQHPQLQLPPQFRNPFDLLFDERTGAINYNYIRPYLPNQMPKPEELPDSLVMRRPRRTRTTFTSSQIAELEQHFLQGRYLTAPRLADLSAKLALGTAQVKIWFKNRRRRHKIQSDQHKDQSYE | no binding
LexA-TNF-R1-DD fusion protein (death domain of the P55 type 1 TNF receptor) (receptor, UniProt P19438 355-442, looked up, range 326-413; also called TNF-RDD; TNF-R death domain; not shown: LexA, bait fusion partner from plasmid pEG202) DPATLYAVVENVPPLRWKEFVRRLGLSDHEIDRLELQNGRCLREAQYSMLATWRRRTPRREATLELLGRVLRDMDLLGCLEDIEEALC | binds
intracellular domain of the second TNF-R (TNF-R p75IC) (receptor, UniProt P20333 288-461, looked up, domain: intracellular domain; also called TNF-R p75JC) KKKPLCLQREAKVPHLPADKARGTQGPEQQHLLITAPSSSSSSLESSASALDRRAPTRNQPQAPGVEASGAGEARASTGSSDSSPGGHGTQVNVTCIVNVCSSSDHSSQCSSQASSTMGDTDSSPSESPKDEQVPFSKEECAFRSQLETPETLLGSTEEKPLPLGVPDAGMKPS | no binding

Look up binding result for this binder: entire intracellular domain of TNF-R (TNF-R p55IC) (receptor, UniProt P19438 233-455, looked up, domain: entire intracellular domain; also called TNF-R p55JC; cytoplasmic domain of the p55 TNF-R) MYRYQRWKSKLYSIVCGKSTPEKEGELEGTTTKPLAPNPSFSPTPGFTPTLGFSPVPSSTFTSSSTYTPGDCPNFAAPRREVAPPYQGADPILATALASDPIPNPLQKWEDSAHKPQSLDTDDPATLYAVVENVPPLRWKEFVRRLGLSDHEIDRLELQNGRCLREAQYSMLATWRRRTPRREATLELLGRVLRDMDLLGCLEDIEEALCGPAALPPAPSLLR
binds
